B1: TPR t1 (parent)
chain: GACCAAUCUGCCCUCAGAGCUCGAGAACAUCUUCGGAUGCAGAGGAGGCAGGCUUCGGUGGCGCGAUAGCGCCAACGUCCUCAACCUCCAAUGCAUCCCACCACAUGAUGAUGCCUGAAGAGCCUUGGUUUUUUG

Variants of: B1
test.details: polymerase ribozyme fitness, log enrichment relative to wild type (log ratio); higher = more active; in vitro selection for triplet polymerase activity
Entries annotated with measured polymerase ribozyme fitness (log ratio)

[
  {
    "mutation.id": "C8A C123U",
    "polymerase ribozyme fitness (log ratio)": 1.44
  },
  {
    "mutation.id": "C98U C102A A111G A121G G122A",
    "polymerase ribozyme fitness (log ratio)": -5.08
  },
  {
    "mutation.id": "C70A A91G",
    "polymerase ribozyme fitness (log ratio)": -2.74
  },
  {
    "mutation.id": "C12A C80U G120U U132A",
    "polymerase ribozyme fitness (log ratio)": 1.64
  },
  {
    "mutation.id": "C72U A74U U106A G127A",
    "polymerase ribozyme fitness (log ratio)": -1.68
  },
  {
    "mutation.id": "A6U C72A A84U U132C",
    "polymerase ribozyme fitness (log ratio)": -0.139
  },
  {
    "mutation.id": "G10C U78C",
    "polymerase ribozyme fitness (log ratio)": -1.63
  },
  {
    "mutation.id": "C94A G110A",
    "polymerase ribozyme fitness (log ratio)": -2.19
  },
  {
    "mutation.id": "U9A G42A G57U C115A G127U U131A",
    "polymerase ribozyme fitness (log ratio)": -3.74
  },
  {
    "mutation.id": "C56A C101U G110A",
    "polymerase ribozyme fitness (log ratio)": -1.05
  },
  {
    "mutation.id": "A18U G44C G69U",
    "polymerase ribozyme fitness (log ratio)": -0.776
  },
  {
    "mutation.id": "A37G C40U",
    "polymerase ribozyme fitness (log ratio)": -1.48
  },
  {
    "mutation.id": "C56A U67A",
    "polymerase ribozyme fitness (log ratio)": -6.26
  },
  {
    "mutation.id": "C11A U38G C56U C86G U112C",
    "polymerase ribozyme fitness (log ratio)": -2.57
  },
  {
    "mutation.id": "A37U A74C C102A C104U",
    "polymerase ribozyme fitness (log ratio)": -2.41
  },
  {
    "mutation.id": "U14A U125G",
    "polymerase ribozyme fitness (log ratio)": -3.25
  },
  {
    "mutation.id": "G17A G61A",
    "polymerase ribozyme fitness (log ratio)": -2.34
  },
  {
    "mutation.id": "C89A A105C",
    "polymerase ribozyme fitness (log ratio)": -4.64
  },
  {
    "mutation.id": "A43G C73U C79A U96G A118U",
    "polymerase ribozyme fitness (log ratio)": -4.39
  },
  {
    "mutation.id": "C94G U106A",
    "polymerase ribozyme fitness (log ratio)": -1.14
  },
  {
    "mutation.id": "C85U C99U",
    "polymerase ribozyme fitness (log ratio)": -4.89
  },
  {
    "mutation.id": "A68G G71A C101U",
    "polymerase ribozyme fitness (log ratio)": -5.85
  }
]
